From: patent US6207399A

- subject_of_test: factor Xa (Homo sapiens, UniProt P00742)
- Construct: human factor Xa samples; gift of Dr. T. Lindhout (University of Limburg, Maastricht)
- Sequence (P00742 41-179 limits assumed): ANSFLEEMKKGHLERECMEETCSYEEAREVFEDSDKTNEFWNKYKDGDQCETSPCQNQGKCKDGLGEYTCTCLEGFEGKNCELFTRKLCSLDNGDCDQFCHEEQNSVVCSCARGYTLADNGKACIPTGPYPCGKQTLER
- Sequence (P00742 235-488 limits assumed): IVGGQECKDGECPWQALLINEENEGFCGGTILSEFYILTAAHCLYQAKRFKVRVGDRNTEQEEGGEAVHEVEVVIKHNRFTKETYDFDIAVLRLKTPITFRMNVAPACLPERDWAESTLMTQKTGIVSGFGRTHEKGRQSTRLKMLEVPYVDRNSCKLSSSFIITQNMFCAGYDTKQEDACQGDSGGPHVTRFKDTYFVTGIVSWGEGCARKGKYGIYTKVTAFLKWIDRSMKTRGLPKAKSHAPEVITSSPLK
- test_description: Kinetic parameters of hydrolysis of the substrates by factor Xa in buffer A at 37° C. (Example 4, Table 3)
- Format: biochemical
- Set-up: key: NH: no hydrolysis
- condition_parameters: buffer A, 37° C., 50 nM factor Xa
Square brackets hold non-standard residues; d marks the D form. Peptide text beside a SMILES is read from it. * marks the point of attachment. pNA = O=[N+]([O-])c1ccc(N*)cc1; Nle = CCCC[C@H](N)C(=O)O
property: Factor Xa kcat

[[record]]
compound = "CC(C)[C@H](NC(=O)OCCS(C)(=O)=O)C(=O)N[C@@H](CCCCN)C(=O)Nc1ccc([N+](=O)[O-])cc1.Cl [Msc-Val-Lys-pNA.HCl]"
property = "Factor Xa kcat"
test_result = "NH"

[[record]]
compound = "CC(C)[C@H](N)C(=O)N[C@@H](CCCNC(=N)N)C(=O)Nc1ccc([N+](=O)[O-])cc1.Cl.Cl [2HCl.H-Val-Arg-pNA] (H-Val-Arg-pNA)"
property = "Factor Xa kcat"
test_result = "NH"

[[record]]
compound = "CCCC[C@H](NC(=O)[C@@H](NC(=O)CN)C(C)C)C(=O)Nc1ccc([N+](=O)[O-])cc1.Cl [HCl.H-Gly-Val-Nle-pNA] (H-Gly-Val-[Nle]-pNA)"
property = "Factor Xa kcat"
test_result = "NH"

